- Assayed System: α-synuclein seeded by E. coli CsgA (Homo sapiens, UniProt P37840)
- Construct: the full-length gene for untagged human α-synuclein was inserted; made in house; host or cells: α-synuclein: E. coli BL21 (DE3); CsgA: E. coli NEB 3016 slyD::kan
- Protocol Details: Thioflavin T cell-free assay of CsgA-seeded α-synuclein aggregation
- Assay type: biochemical
- Condition Notes: read-out: Inhibition of Aggregation, CsgA-seeded αSyn (compound activity range)
Listed next: entries and their corresponding inhibition at 50 µM.

Solved entries (count: 7):
[
  {
    "Smiles String": "COc1cc(OC)c2c(=O)c(C(=O)Nc3cccc(O)c3)c[nH]c2c1",
    "Recorded Measurement": "< -10%"
  },
  {
    "Smiles String": "COc1cc(NC(=O)c2c(N)sc3c2CCCC3)cc(OC)c1OC",
    "Recorded Measurement": "> 60%"
  },
  {
    "Smiles String": "COc1cc(OC)c2c(=O)c(C(=O)Oc3cc(OC)c(OC)c(OC)c3)c[nH]c2c1",
    "Recorded Measurement": "< -10%"
  },
  {
    "Smiles String": "CN(C(=O)c1c[nH]c2cc(O)cc(O)c2c1=O)c1cc(O)c(O)c(O)c1",
    "Recorded Measurement": "> 60%"
  },
  {
    "Smiles String": "COc1cc2[nH]cc(C(=O)Nc3cccc(O)c3)c(=O)c2c(OC)c1OC",
    "Recorded Measurement": "< -10%"
  },
  {
    "Smiles String": "O=C(Nc1sc2c(c1C(=O)Nc1cc(O)cc(O)c1)CCCC2)c1cc(O)c(O)c(O)c1",
    "Recorded Measurement": "> 60%"
  },
  {
    "Smiles String": "COc1cc(NC(=O)c2c[nH]c3cc(OC)c(OC)c(OC)c3c2=O)cc(OC)c1OC",
    "Recorded Measurement": "10 to 30%"
  }
]

Proceeding to the next compound to report its inhibition at 50 µM.
Reported inhibition at 50 µM for O=C(Nc1cccc(O)c1)c1c[nH]c2cc(O)c(O)c(O)c2c1=O : what is it?
> 60%

---

- Assayed System: E. coli CsgA (Escherichia coli, UniProt P28307)
- Construct: 6xHis (C); made in house; host or cells: E. coli NEB 3016 slyD::kan
- Sequence (P28307 23-151): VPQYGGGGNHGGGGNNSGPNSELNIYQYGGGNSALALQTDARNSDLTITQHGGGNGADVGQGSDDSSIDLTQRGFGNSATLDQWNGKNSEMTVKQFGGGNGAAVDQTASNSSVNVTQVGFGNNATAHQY
- Protocol Details: Thioflavin T cell-free assay of CsgA aggregation
- Assay type: biochemical
- Condition Notes: read-out: Inhibition of Aggregation, CsgA
Measured Endpoint: inhibition at 20 µM
Express the reported value numerically, then name its unit.

Solved entries (count: 5):
[
  {
    "Smiles String": "COc1cc(NC(=O)c2c(NC(=O)c3ccccc3)sc3c2CCCC3)cc(OC)c1OC",
    "inhibition at 20 µM": "-24%"
  },
  {
    "Smiles String": "COc1cc(C(=O)Nc2sc3c(c2C(=O)Nc2ccccc2)CCCC3)cc(OC)c1OC",
    "inhibition at 20 µM": "-33%"
  },
  {
    "Smiles String": "O=C(Nc1sc2c(c1C(=O)Nc1cc(O)cc(O)c1)CCCC2)c1cc(O)c(O)c(O)c1",
    "inhibition at 20 µM": "40%"
  },
  {
    "Smiles String": "COc1cc(C(=O)Nc2sc3c(c2C(=O)O)CCCC3)cc(OC)c1OC",
    "inhibition at 20 µM": "18%"
  },
  {
    "Smiles String": "O=C(Nc1cc(O)c(O)c(O)c1)c1c[nH]c2cc(O)c(O)c(O)c2c1=O",
    "inhibition at 20 µM": "61%"
  }
]

Proceeding to the next compound to report its inhibition at 20 µM.
Reported inhibition at 20 µM for COc1cc2[nH]cc(C(=O)Nc3ccc(O)cc3)c(=O)c2c(OC)c1OC : what is it?
9%
